experimental_target: CDK6 (Homo sapiens)
Construct: endogenous in cells
experimental_details: CDK6 degradation (DC50, Dmax)
Format: cell-based
measured_parameter: Dmax

molecule | Dmax
CC(=O)c1c(C)c2cnc(Nc3ccc(N4CCN(CCNc5ccc6c(c5)C(=O)N(C5CCC(=O)NC5=O)C6=O)CC4)cn3)nc2n(C2CCCC2)c1=O (centres unmarked) [Compound 47] | > 80%
CC(=O)c1c(C)c2cnc(Nc3ccc(N4CCN(C5CCN(C(=O)N6CCC(CN7CCN(c8ccc9c(c8)C(=O)N(C8CCC(=O)NC8=O)C9=O)CC7)CC6)CC5)CC4)cn3)nc2n(C2CCCC2)c1=O (centres unmarked) [Compound 86] | > 60%

Which measured Dmax belongs to CC(=O)c1c(C)c2cnc(Nc3ccc(N4CCN(CC5CCN(c6ccc7c(c6)CN(C6CCC(=O)NC6=O)C7=O)CC5)CC4)cn3)nc2n(C2CCCC2)c1=O (centres unmarked) [Compound 66] , tested on CDK6 (Homo sapiens)?
> 80%

Try this molecule next: Cc1nc2c(F)cc(-c3nc(Nc4ccc(CN5CCN(C(=O)C6CN(c7ccc8c(c7)CN(C7CCC(=O)NC7=O)C8=O)C6)CC5)cn4)ncc3F)cc2n1C(C)C (centres unmarked) [Compound 136]
> 80%

Try this molecule next: Cc1nc2c(F)cc(-c3nc(Nc4ccc(CN5CCN(CC6CN(c7ccc(N8CCC(=O)NC8=O)cc7)C6)CC5)cn4)ncc3F)cc2n1C(C)C [Compound 106]
> 80%

====

experimental_target: CDK4 (Homo sapiens, UniProt P11802)
Construct: endogenous in cells
Sequence (P11802 whole entry): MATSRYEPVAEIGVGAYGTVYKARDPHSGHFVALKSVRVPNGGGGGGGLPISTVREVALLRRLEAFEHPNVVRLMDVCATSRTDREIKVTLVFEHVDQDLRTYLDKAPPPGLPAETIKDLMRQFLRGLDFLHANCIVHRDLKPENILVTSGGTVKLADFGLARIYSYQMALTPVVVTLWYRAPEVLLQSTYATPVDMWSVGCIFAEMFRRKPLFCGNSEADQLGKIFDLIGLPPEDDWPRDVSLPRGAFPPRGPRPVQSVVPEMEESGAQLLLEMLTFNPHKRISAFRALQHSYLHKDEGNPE
experimental_details: CDK4 degradation (DC50, Dmax)
Assay type: cell-based
Recorded DC50, one value per entry.

// solved cases for DC50 follow
compound | DC50
CC(=O)c1c(C)c2cnc(Nc3ccc(N4CCN(CCCN(C)c5cccc6c5C(=O)N(C5CCC(=O)NC5=O)C6=O)CC4)cn3)nc2n(C2CCCC2)c1=O (stereo not drawn) [Compound 103] | 50 to 200 nM
Cc1nc2c(F)cc(-c3nc(Nc4ccc(CN5CCN(CCCNc6cccc7c6C(=O)N(C6CCC(=O)NC6=O)C7=O)CC5)cn4)ncc3F)cc2n1C(C)C (stereo not drawn) [Compound 100] | 50 to 200 nM
CC(=O)c1c(C)c2cnc(Nc3ccc(N4CCN(C(=O)N5CCN(c6ccc7c(c6)CN(C6CCC(=O)NC6=O)C7=O)CC5)CC4)cn3)nc2n(C2CCCC2)c1=O (stereo not drawn) [Compound 2] | > 200 nM
CN(C)C(=O)c1cc2cnc(Nc3ccc(N4CCN(CCCNc5ccc6c(c5)CN(C5CCC(=O)NC5=O)C6=O)CC4)cn3)nc2n1C1CCCC1 (stereo not drawn) [Compound 76] | < 50 nM

Which measured DC50 belongs to CC(=O)c1c(C)c2cnc(Nc3ccc(N4CCN(CCCNc5ccc6c(c5)CN(C5CCC(=O)NC5=O)C6=O)CC4)cn3)nc2n(C2CCCC2)c1=O (stereo not drawn) [Compound 50] , tested on CDK4 (Homo sapiens, UniProt P11802)?
< 50 nM

Try this compound next: CC(=O)c1c(C)c2cnc(Nc3ccc(N4CCN(CC5CCN(c6cccc7c6C(=O)N(C6CCC(=O)NC6=O)C7=O)CC5)CC4)cn3)nc2n(C2CCCC2)c1=O (stereo not drawn) [Compound 78]
50 to 200 nM

====

experimental_target: CDK4 (Homo sapiens, UniProt P11802)
Construct: endogenous in cells
experimental_details: CDK4 degradation (DC50, Dmax)
Format: cell-based
measured_parameter: Dmax

// solved cases for Dmax follow
compound | Dmax
Cc1nc2c(F)cc(-c3nc(Nc4ccc(CN5CCN(C6CCN(c7ccc(N8CCC(=O)NC8=O)cc7)CC6)CC5)cn4)ncc3F)cc2n1C(C)C [Compound 109] | > 80%
CC(=O)c1c(C)c2cnc(Nc3ccc(N4CCN(CCN(C)c5cccc6c5C(=O)N(C5CCC(=O)NC5=O)C6=O)CC4)cn3)nc2n(C2CCCC2)c1=O (stereo not drawn) [Compound 61] | > 60%

From here, focus on the item given below.
Which measured Dmax belongs to CC(=O)c1c(C)c2cnc(Nc3ccc(N4CCN(CCCNc5ccc6c(c5)CN(C5CCC(=O)NC5=O)C6=O)CC4)cn3)nc2n(C2CCCC2)c1=O (stereo not drawn) [Compound 50] , tested on CDK4 (Homo sapiens, UniProt P11802)?
> 80%

====

experimental_target: CDK4 (Homo sapiens)
Construct: endogenous in cells
experimental_details: CDK4 degradation (DC50, Dmax)
Format: cell-based
measured_parameter: DC50

molecule | measured_parameter | result
Cc1nc2c(F)cc(-c3nc(Nc4ccc(CC5CCN(CC6CCN(c7ccc8c(c7)CN(C7CCC(=O)NC7=O)C8=O)CC6)CC5)cn4)ncc3F)cc2n1C(C)C (centres unmarked) [Compound 158] | DC50 | 50 to 200 nM

From here, focus on the item given below.
Endpoint output: DC50 of Cc1nc2c(F)cc(-c3nc(Nc4ccc(CN5CCN(CCCNc6ccc7c(c6)C(=O)N(C6CCC(=O)NC6=O)C7=O)CC5)cn4)ncc3F)cc2n1C(C)C (centres unmarked) [Compound 73] . Value?
< 50 nM

====

experimental_target: CDK4 (Homo sapiens, UniProt P11802)
Construct: endogenous in cells
experimental_details: CDK4 degradation (DC50, Dmax)
Format: cell-based
Recorded DC50, one value per entry.

// solved cases for DC50 follow
molecule | DC50
Cc1nc2c(F)cc(-c3nc(Nc4ccc(CN5CCN(CCNc6ccc7c(c6)C(=O)N(C6CCC(=O)NC6=O)C7=O)CC5)cn4)ncc3F)cc2n1C(C)C (stereo not drawn) [Compound 90] | < 50 nM
CC(=O)c1c(C)c2cnc(Nc3ccc(N4CCN(CCN5CCC(c6ccc7c(c6)C(=O)N(C6CCC(=O)NC6=O)C7=O)CC5)CC4)cn3)nc2n(C2CCCC2)c1=O (stereo not drawn) [Compound 71] | > 200 nM

Endpoint output: DC50 of CC(=O)c1c(C)c2cnc(Nc3ccc(N4CCN(C(=O)N5CCC(CN6CCC(c7ccc8c(c7)C(=O)N(C7CCC(=O)NC7=O)C8=O)CC6)CC5)CC4)cn3)nc2n(C2CCCC2)c1=O (stereo not drawn) [Compound 17] . Value?
50 to 200 nM

====

experimental_target: CDK6 (Homo sapiens, UniProt Q00534)
Construct: endogenous in cells
Sequence (Q00534 whole entry): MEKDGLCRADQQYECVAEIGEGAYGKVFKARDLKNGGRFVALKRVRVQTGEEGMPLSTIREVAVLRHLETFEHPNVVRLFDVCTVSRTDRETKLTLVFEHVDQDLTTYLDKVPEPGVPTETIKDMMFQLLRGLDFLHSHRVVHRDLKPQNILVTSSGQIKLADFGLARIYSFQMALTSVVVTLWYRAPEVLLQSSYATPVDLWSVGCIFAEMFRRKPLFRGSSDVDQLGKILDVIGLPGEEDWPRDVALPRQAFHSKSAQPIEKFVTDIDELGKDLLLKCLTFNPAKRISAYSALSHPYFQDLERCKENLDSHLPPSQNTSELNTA
experimental_details: CDK6 degradation (DC50, Dmax)
Format: cell-based
Recorded Dmax, one value per entry.

Which measured Dmax belongs to CC(=O)c1c(C)c2cnc(Nc3ccc(N4CCN(C(=O)N5CCC(CCN6CCN(c7ccc8c(c7)C(=O)N(C7CCC(=O)NC7=O)C8=O)CC6)CC5)CC4)cn3)nc2n(C2CCCC2)c1=O (stereo not drawn) , tested on CDK6 (Homo sapiens, UniProt Q00534)?
> 60%

Try this molecule next: Cc1nc2c(F)cc(-c3nc(Nc4ccc(CC5CCN(C6CCN(c7ccc8c(c7)C(=O)N(C7CCC(=O)NC7=O)C8=O)CC6)CC5)cn4)ncc3F)cc2n1C(C)C (stereo not drawn)
> 80%

Try this molecule next: CC(=O)c1c(C)c2cnc(Nc3ccc(N4CCN(CCN5CCN(c6ccc7c(c6)C(=O)N(C6CCC(=O)NC6=O)C7=O)CC5)CC4)cn3)nc2n(C2CCCC2)c1=O (stereo not drawn)
> 80%

Try this molecule next: CC(=O)c1c(C)c2cnc(Nc3ccc(N4CCN(C5CCN(C(=O)N6CCN(c7ccc8c(c7)C(=O)N(C7CCC(=O)NC7=O)C8=O)CC6)CC5)CC4)cn3)nc2n(C2CCCC2)c1=O (stereo not drawn)
> 60%

====

experimental_target: CDK4 (Homo sapiens, UniProt P11802)
Construct: endogenous in cells
experimental_details: CDK4 degradation (DC50, Dmax)
Format: cell-based
measured_parameter: DC50

// solved cases for DC50 follow
compound | DC50
CC(=O)c1c(C)c2cnc(Nc3ccc(N4CCN(C(=O)N5CCC(CN6CCN(c7ccc8c(c7)C(=O)N(C7CCC(=O)NC7=O)C8=O)CC6)CC5)CC4)cn3)nc2n(C2CCCC2)c1=O (stereo not shown) [Compound 11] | 50 to 200 nM
Cc1nc2c(F)cc(-c3nc(Nc4ccc(CN5CCN(C6CCN(c7ccc(N8CCC(=O)NC8=O)cc7)CC6)CC5)cn4)ncc3F)cc2n1C(C)C [Compound 109] | < 50 nM
CC(=O)c1c(C)c2cnc(Nc3ccc(N4CCN(CCN(C)c5ccc6c(c5)C(=O)N(C5CCC(=O)NC5=O)C6=O)CC4)cn3)nc2n(C2CCCC2)c1=O (stereo not shown) [Compound 55] | 50 to 200 nM

Which measured DC50 belongs to CC(=O)c1c(C)c2cnc(Nc3ccc(N4CCN(C(=O)N5CCN(CCC6CCN(c7ccc8c(c7)C(=O)N(C7CCC(=O)NC7=O)C8=O)CC6)CC5)CC4)cn3)nc2n(C2CCCC2)c1=O (stereo not shown) [Compound 23] , tested on CDK4 (Homo sapiens, UniProt P11802)?
> 200 nM

Try this compound next: CC(=O)c1c(C)c2cnc(Nc3ccc(N4CCN(CCCNc5cc6c(cc5F)C(=O)N(C5CCC(=O)NC5=O)C6=O)CC4)cn3)nc2n(C2CCCC2)c1=O (stereo not shown) [Compound 51]
50 to 200 nM

Try this compound next: CC(=O)c1c(C)c2cnc(Nc3ccc(N4CCN(C(=O)N5CCN(C6CCN(c7ccc8c(c7)CN(C7CCC(=O)NC7=O)C8=O)CC6)CC5)CC4)cn3)nc2n(C2CCCC2)c1=O (stereo not shown) [Compound 6]
> 200 nM

Try this compound next: Cc1nc2c(F)cc(-c3nc(Nc4ccc(CN5CCN(CC6CCCN(c7ccc(N8CCC(=O)NC8=O)cc7)C6)CC5)cn4)ncc3F)cc2n1C(C)C (stereo not shown) [Compound 110]
< 50 nM
